- ASSAYED TARGET: UniProtKB P30561
- ASSAY COMMENT: Transactivation assay in mouse cell line (in vitro assay 2: antagonism)
- TEST PARAMETERS: Hepa 1c1c7 cells, AHR inducible (DRE) firefly luciferase reporter, 200 μM kynurenic acid, 20 hours
// reported pIC50 per item
Worth noting: pIC50 values are minus log10 of concentrations stated in mol/L.

// solved cases for pIC50 follow
C[C@@H](CO)NC(=O)c1cc(-c2ccc(OC(F)(F)F)cc2)nc(-c2ccc(Cl)s2)n1 [Example 32]
7.41
C[C@@H](CO)NC(=O)c1cc(-c2ccc(Cl)cc2)nc(-c2cccnc2)n1 [Example 9]
8.55
C[C@@H](CO)NC(=O)c1cc(-c2ccc(OC(F)(F)F)cc2)nc(-c2ccnn2C)n1 [Example 34]
7.62
C[C@@H](CO)NC(=O)c1cc(-c2ccc(Cl)cc2)nc(-c2ccnn2C)n1 [Example 74]
7.20
COc1ccncc1-c1nc(C(=O)N[C@@H](C)CO)cc(-c2ccc(OC(F)(F)F)cc2)n1 [Example 40]
7.37
Cn1cc(-c2nc(C(=O)N[C@H]3CCC[C@@H]3O)cc(-c3ccc(OC(F)(F)F)cc3)n2)cn1 (stereo in doubt) [Example 87]
8.41
CC(C)[C@@H](CO)NC(=O)c1cc(-c2ccc(OC(F)(F)F)cc2)nc(-c2cnn(C)c2)n1 [Example 116]
8.71

# input for lookup
IN: What pIC50 appears in the records for this compound with UniProtKB P30561? C[C@@H](CO)NC(=O)c1cc(-c2ccc(Cl)cc2)nc(-c2ccc(Cl)s2)n1 [Example 72]
OUT: 7.01

###

// reported pIC50 per item
- ASSAYED TARGET: Human AhR (Homo sapiens)
- Sequence (P35869 11-848): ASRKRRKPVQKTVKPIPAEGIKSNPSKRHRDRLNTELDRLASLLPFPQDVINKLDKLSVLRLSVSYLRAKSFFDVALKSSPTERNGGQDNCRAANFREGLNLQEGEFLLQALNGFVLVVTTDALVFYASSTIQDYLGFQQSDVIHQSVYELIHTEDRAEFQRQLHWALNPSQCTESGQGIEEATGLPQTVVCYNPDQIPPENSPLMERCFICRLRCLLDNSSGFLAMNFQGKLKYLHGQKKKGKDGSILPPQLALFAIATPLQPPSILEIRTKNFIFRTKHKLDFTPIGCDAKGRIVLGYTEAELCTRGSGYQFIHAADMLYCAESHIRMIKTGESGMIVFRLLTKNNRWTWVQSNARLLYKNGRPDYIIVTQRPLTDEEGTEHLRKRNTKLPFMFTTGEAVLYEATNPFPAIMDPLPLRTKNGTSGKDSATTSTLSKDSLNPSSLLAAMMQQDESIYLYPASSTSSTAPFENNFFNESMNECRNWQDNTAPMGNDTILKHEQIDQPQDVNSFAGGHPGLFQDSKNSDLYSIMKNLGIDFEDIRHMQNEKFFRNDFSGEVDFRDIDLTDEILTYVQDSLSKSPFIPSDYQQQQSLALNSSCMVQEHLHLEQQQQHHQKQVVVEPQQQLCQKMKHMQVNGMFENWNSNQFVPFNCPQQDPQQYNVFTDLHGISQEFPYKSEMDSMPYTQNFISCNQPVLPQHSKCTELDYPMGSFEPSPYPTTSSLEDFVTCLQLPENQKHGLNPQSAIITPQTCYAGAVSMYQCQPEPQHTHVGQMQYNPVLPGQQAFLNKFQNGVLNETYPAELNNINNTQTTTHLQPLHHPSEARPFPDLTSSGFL
- ASSAY COMMENT: Transactivation assay in human cell line (in vitro assay 1: antagonism)
- TEST PARAMETERS: U87 glioblastoma cells, AHR inducible (DRE) firefly luciferase reporter, 150 μM kynurenic acid, 20 hours
Worth noting: pIC50 values are minus log10 of concentrations stated in mol/L.

C[C@@H](CO)NC(=O)c1cc(-c2ccc(OC(F)(F)F)cc2)nc(-c2cc[nH]n2)n1
7.14

IN: Entry under review: Cn1cc(-c2nc(C(=O)NCC3(O)CCC3)cc(-c3ccc(OC(F)(F)F)cc3)n2)cn1 . Reported pIC50?
OUT: 8.30

IN: Entry under review: C[C@H](NC(=O)c1cc(-c2ccc(C(F)F)cc2)nc(-c2cccnc2)n1)C(C)(C)O . Reported pIC50?
OUT: 8.54

IN: Entry under review: CC(C)(O)CNC(=O)c1cc(-c2ccc(Cl)cc2)nc(-c2ccc(C#N)s2)n1 . Reported pIC50?
OUT: 6.50

###

- ASSAYED TARGET: Mouse AhR (Mus musculus)
- Sequence (P30561 1-848): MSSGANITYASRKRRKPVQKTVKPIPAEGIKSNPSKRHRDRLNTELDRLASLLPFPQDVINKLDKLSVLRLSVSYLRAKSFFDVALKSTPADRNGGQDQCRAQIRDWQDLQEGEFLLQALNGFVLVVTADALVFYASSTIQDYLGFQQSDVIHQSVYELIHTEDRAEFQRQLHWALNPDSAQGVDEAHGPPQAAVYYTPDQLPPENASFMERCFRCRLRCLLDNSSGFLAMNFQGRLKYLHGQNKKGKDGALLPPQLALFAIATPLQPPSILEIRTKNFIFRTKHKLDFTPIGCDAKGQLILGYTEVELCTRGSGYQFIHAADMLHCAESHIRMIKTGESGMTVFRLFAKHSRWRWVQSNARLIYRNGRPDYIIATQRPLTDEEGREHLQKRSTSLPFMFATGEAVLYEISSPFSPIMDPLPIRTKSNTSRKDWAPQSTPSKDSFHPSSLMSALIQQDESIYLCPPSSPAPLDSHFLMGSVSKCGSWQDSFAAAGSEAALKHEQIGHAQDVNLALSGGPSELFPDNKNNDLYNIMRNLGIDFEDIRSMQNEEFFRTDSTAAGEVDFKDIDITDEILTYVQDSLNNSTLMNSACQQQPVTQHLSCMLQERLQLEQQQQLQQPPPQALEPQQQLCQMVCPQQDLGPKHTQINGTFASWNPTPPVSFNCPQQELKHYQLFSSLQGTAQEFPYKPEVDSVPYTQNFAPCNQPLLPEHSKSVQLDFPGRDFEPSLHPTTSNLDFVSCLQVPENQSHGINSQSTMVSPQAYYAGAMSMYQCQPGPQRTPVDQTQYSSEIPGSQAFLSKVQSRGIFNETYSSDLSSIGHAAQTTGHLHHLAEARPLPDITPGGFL
- ASSAY COMMENT: Transactivation assay in mouse cell line (in vitro assay 2: antagonism)
- TEST PARAMETERS: Hepa 1c1c7 cells, AHR inducible (DRE) firefly luciferase reporter, 200 μM kynurenic acid, 20 hours
ASSAY READOUT: IC50 (nM)
// return numeric value only (unit: nM, not printed)

Cn1cc(-c2nc(C(=O)N[C@@H]3CC[C@H]3O)cc(-c3ccc(OC(F)(F)F)cc3)n2)cn1 (relative stereo) [Example 86]
7.07
CC(C)(O)CNC(=O)c1cc(-c2ccc(C(F)F)cc2)nc(-c2cccnc2)n1 [Example 120]
10.2
C[C@@H](CO)NC(=O)c1cc(-c2ccc(OC(F)(F)F)cc2)nc(-c2cn[nH]c2)n1 [Example 41]
55.8
C[C@@H](CO)NC(=O)c1cc(-c2ccc(C(F)(F)F)cc2)nc(-c2cccnc2)n1 [Example 117]
1.33
CC(C)(O)CNC(=O)c1cc(-c2ccc(OC(F)(F)F)cc2)nc(-c2cnoc2)n1 [Example 22]
5530
C[C@@H](CO)NC(=O)c1cc(-c2ccc(Cl)cc2)nc(-c2cnn(C)c2)n1 [Example 11]
7.94
Cn1cc(-c2nc(C(=O)N[C@H]3CCCC[C@@H]3O)cc(-c3ccc(OC(F)(F)F)cc3)n2)cn1 (relative stereo) [Example 92]
5.79
Cc1cscc1-c1nc(C(=O)N[C@@H](C)CO)cc(-c2ccc(Cl)cc2)n1 [Example 71]
4.71

IN: Entry under review: CC(C)(O)CNC(=O)c1cc(-c2ccc(C(F)(F)F)cc2)nc(-c2cccnc2)n1 [Example 7] . Reported IC50?
OUT: 12.7

IN: Entry under review: CC(C)(O)CNC(=O)c1cc(-c2ccc(Cl)cc2)nc(-c2cccnc2)n1 [Example 10] . Reported IC50?
OUT: 8.42

IN: Entry under review: Cn1cc(-c2nc(C(=O)N[C@@H]3CS(=O)(=O)C[C@H]3O)cc(-c3ccc(OC(F)(F)F)cc3)n2)cn1 (relative stereo) [Example 100] . Reported IC50?
OUT: 8.18

IN: Entry under review: Cc1ccc(-c2nc(C(=O)NCC(C)(C)O)cc(-c3ccc(Cl)cc3)n2)cn1 [Example 60] . Reported IC50?
OUT: 1420
